subjectOfTest: T1, ST2 on the effector cells (KU812, KU812/NF-κB-1#, HUVEC, HMC-1) (human, UniProt Q01638 19-556)
T1 sequence (looked up): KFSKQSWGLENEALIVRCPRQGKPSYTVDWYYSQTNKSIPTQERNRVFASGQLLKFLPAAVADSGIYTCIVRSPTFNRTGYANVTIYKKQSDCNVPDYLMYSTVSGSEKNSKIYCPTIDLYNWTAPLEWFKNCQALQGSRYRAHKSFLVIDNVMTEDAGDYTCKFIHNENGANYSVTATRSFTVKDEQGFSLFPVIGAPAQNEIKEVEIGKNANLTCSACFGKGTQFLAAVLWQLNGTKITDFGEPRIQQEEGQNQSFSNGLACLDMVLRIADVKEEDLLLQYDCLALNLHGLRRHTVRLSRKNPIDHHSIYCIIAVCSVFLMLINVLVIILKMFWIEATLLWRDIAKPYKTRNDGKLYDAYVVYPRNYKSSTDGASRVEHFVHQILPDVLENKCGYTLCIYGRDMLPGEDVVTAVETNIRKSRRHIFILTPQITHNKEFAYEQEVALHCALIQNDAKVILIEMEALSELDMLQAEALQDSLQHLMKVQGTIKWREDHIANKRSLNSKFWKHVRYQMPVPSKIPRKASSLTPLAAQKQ
testName: cell-based or functional assay
Each record here notes measured Maximum inhibition rate, KU812-IL5 production by IL-33.
quantityKind: Maximum inhibition rate, KU812-IL5 production by IL-33 (%)

binder	observedValue
5888-116-H0L1 (antibody, human IgG4 S228P, kappa, V domains shown, Humanized antibody) VH: QVQLVQSGAEVKKPGASVKVSCKASGYTFTDSEMYWVRQAPGQGLEWMGAIDPETGDTAFNQKFKGRVTMTRDTSTSTVYMELSSLRSEDTAVYYCARAFDNDNDDGFAYWGQGTMVTVSS VL: DIQMTQSPSSLSASVGDRVTITCSASSSVNYMHWYQQKPGKAPKRLIYDTSKLASGVPSRFSGSGSGTDYTFTISSLQPEDAATYYCQQWSSNPLTFGQGTKLEIKR	98.3
5888-379-H1L0 (antibody, human IgG4 S228P, kappa, V domains shown, Humanized antibody) VH: QVQLVQSGAEVKKPGASVKVSCKASGYTFINYGMNWVRQAPGQRLEWMGWINTYIGEPTYGDNFKGRVTITRDTSASTAYMELSSLRSEDTAVYYCAREGEGFAYWGQGTLVTVSS VL: DIQMTQSPSSLSASVGDRVTITCKSSQSLLYSGNQNNYLAWYQQKPGKVPKLLIYGASTRESGVPSRFSGSGSGTDFTLTISSLQPEDVATYYCQNDHSYPYTFGGGTKVEIKR	99.4
Control antibody CNTO7160 (antibody, human IgG4 S228P, kappa, V domains shown, Known anti-ST2 control antibody) VH: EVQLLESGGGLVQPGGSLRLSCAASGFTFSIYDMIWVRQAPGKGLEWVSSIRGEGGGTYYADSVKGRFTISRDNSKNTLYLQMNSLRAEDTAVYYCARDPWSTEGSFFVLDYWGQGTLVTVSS VL: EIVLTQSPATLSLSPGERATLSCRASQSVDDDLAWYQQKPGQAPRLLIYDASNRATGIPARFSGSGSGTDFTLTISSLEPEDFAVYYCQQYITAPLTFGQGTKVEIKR	97.5
5888-379-H2L1 (antibody, human IgG4 S228P, kappa, V domains shown, Humanized antibody) VH: QVQLVQSGAEVKKPGASVKVSCKASGYTFINYGMNWVRQAPGQRLEWMGWINTYIGEPTYGDNFKGRVTITRDTSASTAYMELSSLRSEDTAVYYCAREGDAFAYWGQGTLVTVSS VL: DIQMTQSPSSLSASVGDRVTITCKSSQSLLYSGNQNNYLAWYQQKPGKVPKLLIYGASTRESGVPSRFSGSGSGTDFTLTISSLQPEDLATYYCQNDHSYPYTFGGGTKVEIKR	98
5888-153-H3L2 (antibody, human IgG4 S228P, kappa, V domains shown, Humanized antibody) VH: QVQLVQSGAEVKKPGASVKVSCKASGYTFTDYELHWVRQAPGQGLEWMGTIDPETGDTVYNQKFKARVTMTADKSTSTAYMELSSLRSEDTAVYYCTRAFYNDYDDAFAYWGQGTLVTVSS VL: EIVMTQSPATLSLSPGERATLSCSVSSSVSYMHWYQQKPGQAPRRLIYDTSKLASGIPARFSGSGSGTDYTLTISSLEPEDAAVYYCQQWNTSPLTFGGGTKVEIKR	94.2
5888-153-H3L1 (antibody, human IgG4 S228P, kappa, V domains shown, Humanized antibody) VH: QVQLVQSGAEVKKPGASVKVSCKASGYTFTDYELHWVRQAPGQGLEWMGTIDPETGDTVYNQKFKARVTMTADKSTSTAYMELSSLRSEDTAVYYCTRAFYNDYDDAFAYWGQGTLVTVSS VL: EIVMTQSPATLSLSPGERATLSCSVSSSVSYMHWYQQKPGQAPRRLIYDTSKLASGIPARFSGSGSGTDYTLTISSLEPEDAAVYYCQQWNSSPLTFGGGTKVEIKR	97
5886-156-H1L1 (antibody, human IgG4 S228P, kappa, V domains shown, Humanized antibody) VH: QVQLQESGPGLVKPSQTLSLTCTVSGYSITSDYAWNWIRQPPGKGLEWIGYIDYSGSTTYNPSLKSRVTISRDTSKNQFSLKLSSVTAADTAVYYCASTVIDSMDYWGQGTLVTVSS VL: DIVLTQSPASLAVSPGQRATITCRASKSVSTSGHSYMHWYQQKPGQPPKLLIYLASNLESGVPARFSGSGSGTDFTLTINPVEANDAANYYCQHSREFPFTFGQGTKVEIKR	95
5886-156-H1L0 (antibody, human IgG4 S228P, kappa, V domains shown, Humanized antibody expressed in CHO-K1, purified by protein A) VH: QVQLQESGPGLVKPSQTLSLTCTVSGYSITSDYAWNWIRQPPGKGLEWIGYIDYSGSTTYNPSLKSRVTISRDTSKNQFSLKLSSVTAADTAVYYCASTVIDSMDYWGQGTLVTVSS VL: DIVLTQSPASLAVSPGQRATITCRASKSVSTSGHSYMHWYQQKPGQPPKLLIYLASNLESGVPARFSGSGSGTDFTLTINPVEANDTANYYCQHSREFPFTFGQGTKVEIKR	98.1
5888-153-H0L1 (antibody, human IgG4 S228P, kappa, V domains shown, Humanized antibody) VH: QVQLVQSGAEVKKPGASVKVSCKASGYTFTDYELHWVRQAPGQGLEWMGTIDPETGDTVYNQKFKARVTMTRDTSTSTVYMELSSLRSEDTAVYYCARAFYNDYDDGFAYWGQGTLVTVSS VL: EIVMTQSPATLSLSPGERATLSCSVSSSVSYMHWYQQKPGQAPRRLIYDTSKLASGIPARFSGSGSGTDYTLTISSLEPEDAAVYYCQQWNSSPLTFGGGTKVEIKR	99.1
5888-379-H2L2 (antibody, human IgG4 S228P, kappa, V domains shown, Humanized antibody) VH: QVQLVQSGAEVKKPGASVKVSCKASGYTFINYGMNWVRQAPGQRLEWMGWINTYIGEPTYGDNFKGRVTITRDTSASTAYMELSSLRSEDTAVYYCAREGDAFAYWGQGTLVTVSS VL: DIVMTQSPDSLAVSLGERATINCKSSQSLLYSGNQNNYLAWYQQKPGQPPKLLIYGASTRESGVPDRFSGSGSGTDFTLTISSLQAEDVAVYYCQNDHSYPYTFGGGTKVEIKR	97.9
5887-41-H1L0 (antibody, human IgG4 S228P, kappa, V domains shown, Humanized antibody) VH: QVQLQESGPGLVKPSQTLSLTCTVSGYSITSDYAWDWIRQPPGKGLEWIGYIRYSGDTYYNPSLKSRVTISRDTSKNQFSLKLSSVTAADTAVYYCATTMMDTMDYWGQGTLVTVSS VL: DIVLTQSPASLAVSPGQRATITCRASKSVSTSGNSYMHWYQQKPGQPPKLLIYLASNLESGVPARFSGSGSGTDFTLTINPVEANDTANYYCQHSREFPLTFGQGTKLEIKR	97.3
